- tested.on: Cathepsin K (Homo sapiens)
- Sequence (P43235 whole entry): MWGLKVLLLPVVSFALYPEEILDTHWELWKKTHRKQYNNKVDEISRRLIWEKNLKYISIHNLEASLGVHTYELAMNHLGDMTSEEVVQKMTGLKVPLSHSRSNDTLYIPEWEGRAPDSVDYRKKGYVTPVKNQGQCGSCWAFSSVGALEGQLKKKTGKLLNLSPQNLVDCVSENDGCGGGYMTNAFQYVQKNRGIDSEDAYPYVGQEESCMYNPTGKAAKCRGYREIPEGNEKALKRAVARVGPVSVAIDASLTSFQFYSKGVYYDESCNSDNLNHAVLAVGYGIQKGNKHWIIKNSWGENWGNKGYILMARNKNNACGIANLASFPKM
pKi: −log10 of the molar value.
quantity: pKi

Take a look at these entries with their results.
[[record]]
record_smiles = "CCC[C@H](NC(=O)OC(C)(C)C)C(=O)c1nnc(-c2ccccc2OC)o1"
tested_on = "Cathepsin K (Homo sapiens)"
quantity = "pKi"
test_value = 4.77

[[record]]
record_smiles = "CCC[C@H](NC(=O)C1(NC(=O)c2ccc(OC(F)(F)F)cc2)CCCCC1)C(=O)c1nnc(-c2ccc(OC)cc2)o1"
tested_on = "Cathepsin K (Homo sapiens)"
quantity = "pKi"
test_value = 7.66


1. CCC[C@H](NC(=O)OC(C)(C)C)C(=O)c1nnc(-c2cccs2)o1
2. CCC[C@H](NC(=O)C1(NC(=O)OC(C)(C)C)CCCCC1)C(=O)c1nnc(-c2ccco2)o1
Problem: Lab log: flag the item ( 1 or 2 ) with the smaller pKi figure. Choose, then provide that item's label.
Result: 1
(1: 6.09, 2: 7.37)
